Measured values drawn from patent US6391914B1 for this set.

# MEASURED_TARGET: α2 receptor
# TEST_DETAILS: Receptor affinity, 3H-rauwolscine binding
# Design: species or system rats
# CONDITION_INFO: 0.7 nmol/L 3H-rauwolscine; read-out: Affinity to α2 receptor: concentration showing 50% inhibition between ligand and receptor

>  <MOLECULE>
CCCNC(CCC)Cc1cc2ccccc2o1.Cl (racemic) [Racemic compound, hydrochloride]

>  <MEASURED_TARGET>
α2 receptor

>  <UNIT_OF_MEASUREMENT>
µM

>  <IC50>
1

$$$$
